Conditions: 333.15 K; 50000 kPa; Liquid; Vibrating tube method
Measured Property: mass density (kg/m3)
Answer format: numeric, kg/m3 implied, no suffix.

1. CCCC[n+]1ccccc1.O=S(=O)([O-])C(F)(F)F [1-butylpyridinium trifluoromethanesulfonate] : 1316.36
2. CCCCCCCC[n+]1cccc(C)c1.F[B-](F)(F)F [N-octyl-3-methylpyridinium tetrafluoroborate] : 1097.71
3. CCCC[n+]1ccccc1.F[B-](F)(F)F [1-butylpyridinium tetrafluoroborate] : 1212.88
4. CCCC[n+]1cccc(C)c1.N#C[N-]C#N [1-butyl-3-methylpyridinium dicyanamide] : 1047.67

Here is the next item to consider.
Qu. I have this compound here, `CCC[n+]1ccccc1Oc1ccc(Cl)c[n+]1CCOS(=O)(=O)[O-].F[B-](F)(F)F` , and I need its recorded mass density.
Ans. 1250.14
